target: hGLP-1R (Homo sapiens, UniProt P43220); experiment: cell-based or functional assay
Sequence (P43220 24-463): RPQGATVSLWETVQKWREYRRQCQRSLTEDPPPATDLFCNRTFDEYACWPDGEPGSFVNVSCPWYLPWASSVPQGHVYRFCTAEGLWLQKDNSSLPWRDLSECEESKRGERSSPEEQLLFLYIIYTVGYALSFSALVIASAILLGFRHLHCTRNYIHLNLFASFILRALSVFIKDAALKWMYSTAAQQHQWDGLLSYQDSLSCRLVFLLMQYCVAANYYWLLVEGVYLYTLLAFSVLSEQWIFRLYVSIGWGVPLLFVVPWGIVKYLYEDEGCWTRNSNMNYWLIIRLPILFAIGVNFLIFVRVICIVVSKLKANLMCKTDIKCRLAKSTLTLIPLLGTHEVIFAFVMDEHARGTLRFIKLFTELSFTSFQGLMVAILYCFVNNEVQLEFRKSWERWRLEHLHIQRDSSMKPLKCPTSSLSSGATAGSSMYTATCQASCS
Assign cAMP Rel EC50 (in the presence of 1% HSA) to each entry below.
Numbers only, in nM.

Batch request: cAMP Rel EC50 (in the presence of 1% HSA) for each of the following binders.
1. YXQGTXTSDXXIXLDXKAQXEFIEXLVEGGPSSGAPPPGGE (not fully specified; non-natural residues; AEEA-γGlu-C18 diacid on Lys; C-terminal amide; synthetic construct; SITE 2: note = 2-Aminoisobutyric Acid; SITE 6: note = alpha-methyl-2-fluoro-L-phenylalanine; SITE 10: note = 3-(4-Pyridyl)-L-alanine; SITE 11: note = alpha-methyl-L-serine; SITE 13: note = alpha-methyl-leucine; SITE 16: note = L-ornithine; SITE 17: note = Lysine is chemically mo) [Example 1154]
2. YXQGTFTSDFSKXLDKKAQXAFIEYLLAGGPSSGEPPPSGG (synthetic construct; SITE 2: note = 2-Aminoisobutyric Acid; SITE 13: note = alpha-methyl-leucine; SITE 17: note = Lysine is chemically modified through conjugation of the epsilon-amino group of the Lysine side chain with (2-[2-(2-Amino-ethoxy)-ethoxy]-acetyl)-(gamma-Glu)-CO-(CH2) 18-CO2H; SITE 20: n) [Example 6]
3. YXQGTXTSDXXIXLDXKAQXEFIEXLIEGGPSSGAPPPSGE (non-natural residues; lipidated Lys; C-terminal amide; synthetic construct; SITE 2: note = 2-Aminoisobutyric Acid; SITE 6: note = alpha-methyl-2-fluoro-L-phenylalanine; SITE 10: note = 3-(4-Pyridyl)-L-alanine; SITE 11: note = alpha-methyl-L-serine; SITE 13: note = alpha-methyl-leucine; SITE 16: note = L-ornithine; SITE 17: note = Lysine is chemically mo) [Example 1176]
4. YXQGTXTSDXSIXLDKKAQXXFIEYLTEGGPSSGEPPPSGSEE (non-natural residues; Lys acylated C18 diacid; C-terminal amide; synthetic construct; SITE 2: note = 2-Aminoisobutyric Acid; SITE 6: note = alpha-methyl-2-fluoro-L-phenylalanine; SITE 10: note = 3-(4-Pyridyl)-L-alanine; SITE 13: note = alpha-methyl-leucine; SITE 17: note = Lysine is chemically modified through conjugation of the epsilon-amino group of the Lysine) [Example 638]
5. YXQGTFTSDFSIXLDKKAQXAFIEYLLEGGPSSGEPPPSEG (non-natural residues; acylated Lys; C-terminal amide; synthetic construct; SITE 2: note = 2-Aminoisobutyric Acid; SITE 13: note = alpha-methyl-leucine; SITE 17: note = Lysine is chemically modified through conjugation of the epsilon-amino group of the Lysine side chain with (2-[2-(2-Amino-ethoxy)-ethoxy]-acetyl)-(gamma-Glu)-CO-(CH2) 18-CO2H; SITE 20: n) [Example 288]
6. YXQGTXTSDXXIXLDXKAQXEFIEXLVEGGPSSGEPPPGGE (not fully specified; Aib, αMeF(2F), 4Pal, Me4Pal, Orn; lipidated Lys; C-terminal amide; synthetic construct; SITE 2: note = 2-Aminoisobutyric Acid; SITE 6: note = alpha-methyl-2-fluoro-L-phenylalanine …; SITE 10: note = 3-(4-Pyridyl)-L-alanine; SITE 11: note = alpha-methyl-L-serine; SITE 13: note = alpha-methyl-leucine; SITE 16: note = L-ornithine; SITE 17: note = Lysine is chemically mo) [Example 1155]

1: 44.5; 2: 446; 3: 43.8; 4: 36; 5: 616; 6: 44.4
